- Measured Target: T1, cloned human SRIF receptor SSTR3 (human, UniProt P32745 1-418)
- T1 construct: whole, on cells; assayed as cryostat sections of membrane pellets of the transfected cells; also called hSSTR3
- T1 sequence (P32745 whole entry): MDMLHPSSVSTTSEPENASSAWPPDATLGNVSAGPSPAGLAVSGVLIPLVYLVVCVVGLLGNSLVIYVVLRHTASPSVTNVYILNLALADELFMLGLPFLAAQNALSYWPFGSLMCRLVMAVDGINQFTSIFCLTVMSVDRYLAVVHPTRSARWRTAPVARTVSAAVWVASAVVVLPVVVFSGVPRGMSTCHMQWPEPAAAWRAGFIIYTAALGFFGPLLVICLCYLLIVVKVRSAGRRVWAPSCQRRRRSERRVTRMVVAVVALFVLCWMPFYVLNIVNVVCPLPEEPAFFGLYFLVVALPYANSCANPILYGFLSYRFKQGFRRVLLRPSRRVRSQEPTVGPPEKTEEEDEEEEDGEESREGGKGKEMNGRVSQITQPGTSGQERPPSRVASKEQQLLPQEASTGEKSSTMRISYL
- Test: radioligand displacement (125I-[Leu8,D-Trp22,Tyr25]SRIF-28), membrane pellet sections
pIC50: −log10 of the molar value. Numbered stars: 1 amine (or outer) side, 2 acyl side, 3 side chain; on linkers, the order of the positions; unused ones are H or OH. Bridge positions count the residues as written; N and C are the ends. Square brackets hold non-standard residues; d marks the D form. * marks the point of attachment. (2S,3R)βMe2Nal = L-threo-(2S,3R)-β-methyl-2-naphthylalanine, (2S,3R)-2-amino-3-(naphthalen-2-yl)butanoic acid, C[C@H](c1ccc2ccccc2c1)[C@H](N[*:1])C(=O)[*:2]; threo‑(2S,3R)CβMe‑2Nal = threo-(2S,3R)-β-methyl-2-naphthylalanine (L-threo), C[C@H](c1ccc2ccccc2c1)[C@H](N[*:1])C(=O)[*:2]; d2Nal(3S-Me) = C[C@@H](c1ccc2ccccc2c1)[C@@H](N)C(=O)O; Phe(4-NH2) = Nc1ccc(C[C@H](N)C(=O)O)cc1; 2Nal = N[C@@H](Cc1ccc2ccccc2c1)C(=O)O; Carbamoyl = NC(=O)*
Readings of pIC50 for the listed binders

{"columns": ["Binder", "pIC50"],
 "data": [
  ["H-YCFAWKTFC-OH (disulfide 2-9, synthetic cyclic nonapeptide; also called Peptide No. 13) [(cyclo)H-Tyr-Cys-Phe-Ala-Trp-Lys-Thr-Phe-Cys-OH]", 6.21],
  ["H-CFY[threo‑(2S,3R)CβMe‑2Nal]KTFC-OH (disulfide 1-8; SMILES C[C@H](c1ccc2ccccc2c1)[C@@H]1NC(=O)[C@H](Cc2ccc(O)cc2)NC(=O)[C@H](Cc2ccccc2)NC(=O)[C@@H](N)CSSC[C@@H](C(=O)O)NC(=O)[C@H](Cc2ccccc2)NC(=O)[C@H]([C@@H](C)O)NC(=O)[C@H](CCCCN)NC1=O, later-eluting isomer, determined to incorporate the L-threo-β-Me-2Nal residue; also called Peptide No. 17A; 17a) [(cyclo)H-Cys-Phe-Tyr-threo-(2S,3R)C^βMe-2Nal-Lys-Thr-Phe-Cys-OH]", 6.08],
  ["H-[dC]FY[(2S,3R)βMe2Nal]KTFC-OH (disulfide 1-8; SMILES C[C@H](c1ccc2ccccc2c1)[C@@H]1NC(=O)[C@H](Cc2ccc(O)cc2)NC(=O)[C@H](Cc2ccccc2)NC(=O)[C@H](N)CSSC[C@@H](C(=O)O)NC(=O)[C@H](Cc2ccccc2)NC(=O)[C@H]([C@@H](C)O)NC(=O)[C@H](CCCCN)NC1=O, also called Peptide No. 16A; Peptide 16A) [(cyclo)H-D-Cys-Phe-Tyr-threo-(2S,3R)C^βMe-2Nal-Lys-Thr-Phe-Cys-OH]", 6.18],
  ["H-[dC]FY[d2Nal(3S-Me)]KTFC-OH (disulfide 1-8, also called Peptide No. 16) [(cyclo)H-D-Cys-Phe-Tyr-threo-(2R,3S)C^βMe-2Nal-Lys-Thr-Phe-Cys-OH]", 7.85],
  ["Carbamoyl-YCFAWKTFC-OH (disulfide 2-9, synthetic cyclic nonapeptide; also called Peptide No. 13B) [(cyclo)Cbm-Tyr-Cys-Phe-Ala-Trp-Lys-Thr-Phe-Cys-OH]", 6.01],
  ["H-CF[Phe(4-NH2)][2Nal]KTFC-OH (disulfide 1-8; SMILES C[C@@H](O)[C@@H]1NC(=O)[C@H](CCCCN)NC(=O)[C@H](Cc2ccc3ccccc3c2)NC(=O)[C@H](Cc2ccc(N)cc2)NC(=O)[C@H](Cc2ccccc2)NC(=O)[C@@H](N)CSSC[C@@H](C(=O)O)NC(=O)[C@H](Cc2ccccc2)NC1=O, synthetic cyclic octapeptide; also called Peptide 5; Peptide No. 5) [(cyclo)H-Cys-Phe-4Aph-2Nal-Lys-Thr-Phe-Cys-OH]", 6.20],
  ["Carbamoyl-CF[Phe(4-NH2)]WKTFC-OH (disulfide 1-8, synthetic cyclic octapeptide; also called Peptide No. 3) [(cyclo)Cbm-Cys-Phe-4Aph-Trp-Lys-Thr-Phe-Cys-OH]", 6.11],
  ["H-YCF[Phe(4-NH2)]WKTFC-OH (disulfide 2-9, synthetic cyclic nonapeptide; also called Peptide No. 6) [(cyclo)H-Tyr-Cys-Phe-4Aph-Trp-Lys-Thr-Phe-Cys-OH]", 6.87]
]}
